The origin of these recorded values is a melting point compilation (Tetko et al.; mined from patent text by program, amines drawn as free bases though some values may be those of a salt).

Listed molecules paired with reported melting point

Solved cases (3 shown):
INSERT INTO assay_data (molecule, result) VALUES
  ('Cc1cc(C(C)(O)c2scnc2C)c(C)o1 (stereo not given)', '100 to 102 °C'),
  ('COC(=O)C(C(=O)Cc1ccccc1)C1c2ccccc2C(=O)N1c1ccc2ccc(Cl)nc2n1 (stereo not given)', '185 °C'),
  ('O=C(Nc1ccnnc1)NC1CCCCCC1', '226 to 228 °C');

Q) Bench note: what melting point did OC1(c2ccc(C(F)(F)F)cc2)CCN(CCCc2noc3cc(F)ccc23)CC1 show?
A) 150 to 152 °C

Q) I am curious: what melting point value has been reported for CN1c2ccccc2Sc2cc(C=Cc3ccc(-c4ccc(C=Cc5ccc6c(c5)Sc5ccccc5N6C)cc4)cc3)ccc21 ?
A) 380 °C

Q) Recorded melting point of Cc1c(Cc2cc(=O)n(-c3cccc(C(F)(F)F)c3)[nH]2)c2cc(Cl)ccc2n1C(=O)c1ccc(Cl)cc1 , please.
A) 81 to 83 °C

Q) # melting point lookup, item c1ccc(C2=N[C@@H](CCP(c3ccccc3)c3ccccc3)CO2)cc1
A) 52.5 to 54 °C

Q) Record request: melting point value, item Cc1ccc(C(C)(C)C)c(SC2=C(O)CC(CCc3ccccc3)(c3ccc(OCCO)cc3)OC2=O)c1 (stereo not given)
A) 70 to 73 °C

Q) Please report the recorded melting point for CCc1nc(C)c(CCC(=O)N(CC)CC)c(=O)n1Cc1ccc(-c2ccccc2-c2nnn[nH]2)cc1 .
A) 100 to 105 °C

Q) Fill in: melting point of Cc1cc(C)nc(NC(=O)NS(=O)(=O)c2c(Cl)c(C)nn2C)n1 is ___
A) 191 to 194 °C

Q) I would be grateful if you could share the reported melting point for COC(=O)c1ccccc1C=CC(=O)C=Cc1ccccc1C(=O)OC .
A) 221 to 223 °C

Q) Request the reported melting point associated with CSc1nc(=O)[nH]c(C)c1Cl
A) 268 °C

Q) I am curious: what melting point value has been reported for CCOC(=O)c1ccc(-c2nc(CCl)c(C)o2)s1 ?
A) 101 to 102 °C

Q) Could you tell me which melting point is on file for CC(NC(=O)Cc1cc(F)cc(F)c1)C(=O)NC1CCCCCNC(=O)C1 (stereo not given) ?
A) > 220 °C

Q) Using the record for CCCCCCCCCCCCCCCCC#CCO , report its melting point.
A) 60 °C

Q) I am curious: what melting point value has been reported for CC1(C)CCC(C)(C)c2cc(-c3csc(C=O)c3)ccc21 ?
A) 84 to 85 °C
